Each entry below lists one item and its recorded koff value.
test target: T1, ZIKV (prM80E) with a C-terminal myc-myc-hexahistidine tag (Zika virus, UniProt A0A024B7W1 104-694)
T1 construct: also called ZIKV (prM80E)-mmH; ZIKV-mmH
protocol text: SPR, mAb captured, 37C, pH 5.5 chase
Give just the number in s⁻¹; leave the unit off.

binder	quantity measured	unit name	observed measurement
H4H25602P (antibody, V domains shown) VH: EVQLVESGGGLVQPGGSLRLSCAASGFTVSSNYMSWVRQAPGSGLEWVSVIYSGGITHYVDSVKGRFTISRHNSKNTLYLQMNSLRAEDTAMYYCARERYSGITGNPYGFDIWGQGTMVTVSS VL: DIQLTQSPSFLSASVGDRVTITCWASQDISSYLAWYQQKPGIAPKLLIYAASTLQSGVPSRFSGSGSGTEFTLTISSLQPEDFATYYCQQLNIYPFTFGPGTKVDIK	koff	s⁻¹	0.0476
H4H25619P (antibody, V domains shown) VH: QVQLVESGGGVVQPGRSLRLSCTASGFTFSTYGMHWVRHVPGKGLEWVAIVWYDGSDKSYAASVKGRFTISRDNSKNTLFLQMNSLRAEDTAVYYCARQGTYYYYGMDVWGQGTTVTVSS VL: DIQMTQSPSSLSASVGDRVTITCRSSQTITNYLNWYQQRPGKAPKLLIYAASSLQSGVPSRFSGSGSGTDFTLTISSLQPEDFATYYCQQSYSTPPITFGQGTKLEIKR	koff	s⁻¹	0.000953
H4H25592P (antibody, V domains shown) VH: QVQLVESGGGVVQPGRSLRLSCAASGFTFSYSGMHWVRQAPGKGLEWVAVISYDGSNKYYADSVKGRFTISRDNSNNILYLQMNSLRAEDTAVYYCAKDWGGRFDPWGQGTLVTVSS VL: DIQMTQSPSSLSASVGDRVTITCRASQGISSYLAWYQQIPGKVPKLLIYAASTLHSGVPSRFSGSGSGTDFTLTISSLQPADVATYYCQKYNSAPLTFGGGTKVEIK	koff	s⁻¹	0.00736

Here's the next entry for you.
What measured koff goes with H4H25598P (antibody, V domains shown) VH: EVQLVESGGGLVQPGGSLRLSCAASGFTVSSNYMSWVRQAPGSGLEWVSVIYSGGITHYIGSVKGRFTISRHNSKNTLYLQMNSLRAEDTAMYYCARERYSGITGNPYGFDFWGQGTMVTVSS VL: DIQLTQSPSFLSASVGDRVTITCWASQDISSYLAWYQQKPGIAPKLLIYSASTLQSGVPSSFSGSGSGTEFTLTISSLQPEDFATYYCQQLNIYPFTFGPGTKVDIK ?
0.0741
